In this section we review reported SPOT peptide array binding signal intensity values for a set of binders.
study-system: AgBem1-D1
method: SPOT peptide array binding signal intensity (averaged, normalized) (arbitrary units (background-subtracted, floor 0; scale differs between SH3 domains)); higher = stronger binding of the SH3 domain to the peptide
experimental-readout: SPOT peptide array binding signal intensity

binder: SSAAPPPPPRRATPE
value-measured: ≤ 0
--
binder: QLMKNLPKIPLLNDI
value-measured: 301
--
binder: AIPPPVPNRPGGTTN
value-measured: ≤ 0
--
binder: HAPPLPPTAPPPPSL
value-measured: ≤ 0
--
binder: PSRRAPLQLPQLVNK
value-measured: 26
--
binder: GLRRARYKFPGQQKI
value-measured: 75
--
binder: APKHAPPPVPNETDN
value-measured: ≤ 0
